Measured pIC50, listed per entry for reference.
- Target or test system: c-Met (Homo sapiens, UniProt P08581)
- Construct: Kinases are expressed as either kinase domains or full length constructs; made in house
- Sequence (P08581 25-1390): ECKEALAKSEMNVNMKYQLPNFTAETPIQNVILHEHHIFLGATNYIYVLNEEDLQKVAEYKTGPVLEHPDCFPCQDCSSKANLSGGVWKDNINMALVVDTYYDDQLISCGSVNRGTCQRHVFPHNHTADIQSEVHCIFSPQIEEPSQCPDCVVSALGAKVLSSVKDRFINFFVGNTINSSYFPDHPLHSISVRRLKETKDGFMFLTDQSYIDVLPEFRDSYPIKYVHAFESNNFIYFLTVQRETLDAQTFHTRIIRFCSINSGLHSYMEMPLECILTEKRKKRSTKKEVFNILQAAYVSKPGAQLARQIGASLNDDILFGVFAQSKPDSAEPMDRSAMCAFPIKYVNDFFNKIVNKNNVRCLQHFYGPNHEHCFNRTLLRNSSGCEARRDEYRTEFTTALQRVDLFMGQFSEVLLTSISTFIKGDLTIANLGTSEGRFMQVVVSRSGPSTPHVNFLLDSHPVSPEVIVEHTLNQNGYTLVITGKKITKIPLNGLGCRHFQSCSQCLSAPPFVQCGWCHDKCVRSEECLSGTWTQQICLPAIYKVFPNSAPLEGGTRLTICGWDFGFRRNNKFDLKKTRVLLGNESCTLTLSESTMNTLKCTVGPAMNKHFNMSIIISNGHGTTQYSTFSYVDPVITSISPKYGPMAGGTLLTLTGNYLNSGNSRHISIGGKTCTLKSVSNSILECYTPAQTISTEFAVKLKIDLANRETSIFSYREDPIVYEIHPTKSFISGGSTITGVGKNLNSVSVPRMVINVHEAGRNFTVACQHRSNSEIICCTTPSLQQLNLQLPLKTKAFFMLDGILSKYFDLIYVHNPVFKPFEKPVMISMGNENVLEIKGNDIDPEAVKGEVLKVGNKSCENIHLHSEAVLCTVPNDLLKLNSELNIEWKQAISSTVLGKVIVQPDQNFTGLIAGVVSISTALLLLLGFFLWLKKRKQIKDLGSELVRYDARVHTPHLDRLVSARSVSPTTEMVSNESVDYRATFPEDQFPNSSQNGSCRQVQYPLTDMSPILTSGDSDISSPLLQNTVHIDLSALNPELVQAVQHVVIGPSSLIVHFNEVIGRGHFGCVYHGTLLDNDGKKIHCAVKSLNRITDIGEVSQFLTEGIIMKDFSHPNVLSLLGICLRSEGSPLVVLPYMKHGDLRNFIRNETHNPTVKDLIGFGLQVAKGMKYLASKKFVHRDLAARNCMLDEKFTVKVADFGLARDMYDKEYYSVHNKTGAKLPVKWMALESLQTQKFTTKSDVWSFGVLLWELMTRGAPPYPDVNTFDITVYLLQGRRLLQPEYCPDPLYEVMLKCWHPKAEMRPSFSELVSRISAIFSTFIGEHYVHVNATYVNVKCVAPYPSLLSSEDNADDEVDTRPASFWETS
- Test description: Kinase inhibition assay (33P transfer), c-Met
- Format: biochemical
- Test settings: Table 2, class symbols A-E; read-out: Met-1
pIC50: −log10 of the molar value.

Example entries and their recorded answers appear below.
{"Compound": "O=C(O)Cc1cccc(Nc2ncnc(-c3cccnc3NCc3ccc(F)cc3)n2)c1 [Compound 1100]", "Target or test system": "c-Met (Homo sapiens, UniProt P08581)", "Readout type": "pIC50", "Experimental result": "4.98 to 5.09"}
{"Compound": "CN(c1ccc2c(cnn2Cc2ccccc2)c1)c1ncnc(Nc2cccc(Cn3ccnn3)c2)n1 [Compound 677]", "Target or test system": "c-Met (Homo sapiens, UniProt P08581)", "Readout type": "pIC50", "Experimental result": "> 6.09"}
{"Compound": "Cc1ccc2c(c1)CCCN2c1ncnc(Nc2cccc(Cc3nnn[nH]3)c2)n1 [Compound 635]", "Target or test system": "c-Met (Homo sapiens, UniProt P08581)", "Readout type": "pIC50", "Experimental result": "> 6.00"}
{"Compound": "Cc1ccc2c(c1)CCCN2c1ncnc(NCc2ccc(C(=O)O)cc2)n1 [Compound 853]", "Target or test system": "c-Met (Homo sapiens, UniProt P08581)", "Readout type": "pIC50", "Experimental result": "< 4.92"}

Data request: Identify measured pIC50 associated with COc1cc(Nc2ncnc(Nc3cc(-c4ccc(C(=O)N(C)C)cc4)n[nH]3)n2)cc(OC)c1OC [Compound 993]
Data returned: > 6.09

Data request: Dear colleague, please send me the reported pIC50 for OCc1cccc(Nc2ncnc(-c3cccnc3Nc3ccccc3)n2)c1 [Compound 1115] when you can.
Data returned: 5.19 to 5.97

Data request: Note down pIC50 recorded for c1ccc(CNc2nc3ccccc3n2-c2ncnc(Nc3cccc(Cn4ccnn4)c3)n2)nc1 [Compound 962]
Data returned: < 5.02
